Data credit: PubChem BioAssay AID256

Test system: CD2F1 mice, L1210 leukemia ip, survival T/C
method_description: NCI In Vivo Anticancer Drug Screen. Data for tumor model L1210 Leukemia (intraperitoneal) in CD2F1 (CDF1) mice
settings: endpoint: mean survival time; dose: 400.0 mg/kg/injection; schedule: Q01DX001 (ip); vehicle: saline with Tween-80; higher = longer survival
Inconclusive results and toxic doses are left out.
// values below are reported T/C
readout_kind: T/C

1) CCC1(C)CCC2(C)C(CCC3C2CCCC3(C)CO)C1 (stereo not given) | 96 % of control
2) CS(=O)(=O)OCCCN(CCCOS(C)(=O)=O)c1ccc(C=Nc2ccc(-c3csc(COc4ccc(Cl)cc4)n3)cc2)cc1 | 95 % of control
3) OC(c1ccc(Cl)cc1)c1ccc(Cl)cc1 | 109 % of control
4) CCCC(O)C(CC)[N+](=O)[O-] (stereo not given) | 94 % of control
5) C/C(=C/c1ccc([N+](=O)[O-])cc1)C(=O)O | 103 % of control

* * *

// values below are reported T/C
Tested on: CD2F1 mice, L1210 leukemia ip, survival T/C
method_description: NCI In Vivo Anticancer Drug Screen. Data for tumor model L1210 Leukemia (intraperitoneal) in CD2F1 (CDF1) mice
settings: endpoint: mean survival time; dose: 50.0 mg/kg/injection; schedule: Q01DX009 (ip); vehicle: saline with Tween-80; higher = longer survival
Toxic doses and inconclusive results are not listed.
readout_kind: T/C

1) OCC1(OC2OC(CBr)C(O)C(O)C2O)OC(CBr)C(O)C1O (stereo not given) | 98 % of control
2) N#CC1(Cc2ccc(OCc3ccccc3)c(OCc3ccccc3)c2)c2ccccc2C=CN1C(=O)c1ccccc1 (stereo not given) | 100 % of control
3) O=C(NCCCl)NC1CCSc2ccccc21 (stereo not given) | 95 % of control
4) CCCCC(CC)CO.[Ti] (stereo not given) | 103 % of control
5) COc1ccc(C(=O)/C=C/c2cccc3ccccc23)cc1 | 93 % of control
6) C[N+](C)(CCO)Cc1ccccc1 | 105 % of control
7) COc1ccc(OCCOC(=O)Nc2cc(Cl)c(OC)cc2OC)cc1 | 106 % of control
8) Cc1c(F)cccc1[N+](=O)[O-] | 101 % of control
9) COc1cc(/C=C(\C#N)c2ccc(Cl)cc2)ccc1OCc1ccccc1 | 95 % of control
10) O=C(NC(=S)Nc1cc(Cl)ccc1Cl)c1cccc(Br)c1 | 100 % of control
11) C=CCNC(=O)/C=C/C(=O)NCC=C | 97 % of control
12) CC1C2CCC(C2)C1OC(=O)c1ccccc1C(=O)O (stereo not given) (tested in a mixture with another compound) | 107 % of control
13) O=C1C(=O)c2ccccc2-c2ccccc21 | 98 % of control
14) CCCCNC(=O)Oc1ccc(C(=O)OCC)cc1 | 97 % of control
15) C=CC(=O)NCNC(=O)C=C | 114 % of control
16) O=C(NNC(=O)c1cccnc1)Nc1cccc(Cl)c1Cl | 94 % of control
17) COC(=O)C(F)C(Br)C(=O)OC (stereo not given) | 108 % of control
18) COc1cccc(OC)c1OC(=O)Nc1c(Cl)cccc1Cl | 96 % of control
19) CCc1ccc(C2=C(O)C(=O)C(c3ccc(CC)cc3)=C(O)C2=O)cc1 | 119 % of control
20) CC(=O)Nc1ccc(NC(=O)Nc2ccc(C)c([N+](=O)[O-])c2)cc1 | 98 % of control

* * *

System: CD2F1 mice, L1210 leukemia ip, survival T/C
method_description: NCI In Vivo Anticancer Drug Screen. Data for tumor model L1210 Leukemia (intraperitoneal) in CD2F1 (CDF1) mice
settings: endpoint: mean survival time; dose: 100.0 mg/kg/injection; schedule: Q01DX001 (ip); vehicle: saline; higher = longer survival
Toxic doses and inconclusive results are not listed.
// values below are reported T/C
readout_kind: T/C

1. CCCCC(CC)CCC(OC(=O)CSC#N)C(C)CC (configuration not stated) | 97 % of control
2. Oc1ccc(Br)cc1/C=N/c1nc(-c2ccccc2)cs1.Oc1ccc(Br)cc1/C=N/c1nc(-c2ccccc2)cs1.[Zn] | 100 % of control
3. CC(C)N(CC(=O)O)CC(=O)O | 100 % of control
4. CCN(CC)C1=C(C)S(=O)(=O)C1c1ccc(C)cc1 (configuration not stated) | 97 % of control
5. C/C(=N/O)c1ccc2c(c1)C(C)c1ccccc1-2 (configuration not stated) | 112 % of control
6. COC(=O)c1c2ccccc2[n+](C)c2ccccc12 | 91 % of control
7. CCCCCc1ccc(C#N)cc1 | 97 % of control
8. c1cc[n+](C[n+]2ccccc2)cc1 | 101 % of control
9. O=C(Nc1ccc(Cl)cc1)Oc1ccc2ccccc2c1 | 96 % of control
10. CC(=O)O.[Th] | 92 % of control
11. CCOC(=O)C(C(=O)OC)C(=O)OCC | 95 % of control
12. O=[N+]([O-])c1ccc(N=C(Cl)N2CCCCC2)cc1 | 109 % of control
13. COc1ccc2c(c1)C1(C)CCCC(C#N)C1CC2 (configuration not stated) | 101 % of control
14. C=COCCSCC | 98 % of control
15. ClC/C(=N\N1CCCCCC1)c1ccccc1 | 103 % of control
16. C/C([O-])=C/[S+](C)(=O)N(C)C (configuration not stated) | 96 % of control
17. O=C(O)c1cc(-c2ccccc2)nc2c1ccc1ccccc12 | 103 % of control
18. Cc1c(/C=N/NC=O)[nH]c(=O)[nH]c1=O | 89 % of control
19. N#CCCCSc1ccccc1 | 96 % of control
20. C=C1C(=O)OC2CCCCC3OC3C12 (configuration not stated) | 91 % of control
21. S=[As](c1ccccc1)(c1ccccc1)c1ccccc1 | 103 % of control
22. O=C1[O][Sb]23[O]C(=O)C([O]2)C(O)C(O)C2[O][Sb]4([O]C(=O)C([O]4)C(O)C(O)C1[O]3)[O]C2=O (configuration not stated) | 101 % of control

* * *

System: CD2F1 mice, L1210 leukemia ip, survival T/C
method_description: NCI In Vivo Anticancer Drug Screen. Data for tumor model L1210 Leukemia (intraperitoneal) in CD2F1 (CDF1) mice
settings: endpoint: mean survival time; dose: 200.0 mg/kg/injection; schedule: Q01DX001 (ip); vehicle: saline with Tween-80; higher = longer survival
Method: The antitumor activity of compounds was measured in mice bearing transplantable tumors. Survival or tumor size were measured and the results are expressed as the measurement made in the treated group (T) divided by the measurement made in the vehicle treated control group (C). The tumor model used in this assay is L1210 Leukemia (intraperitoneal) in CD2F1 (CDF1) mice
Toxic doses and inconclusive results are not listed.
readout_kind: T/C

1) CN1NC(c2ccc(Cl)cc2)C2CN(C3CCCCC3)C(=O)C21O (stereo unspecified) | 96 % of control
2) O=[N+]([O-])c1cc(Br)cc(Br)c1[N+](=O)[O-] | 89 % of control
3) O=C(COc1ccc(Cl)c(Cl)c1)NCCc1cc[n+](Cc2ccc(Cl)cc2S(=O)(=O)F)cc1 | 89 % of control
4) CS/C([S-])=N/[NH-].CS/C([S-])=N/[NH-].[Pd] | 103 % of control
5) OC1CCC2CCC1C2 (stereo unspecified) | 104 % of control
6) C1C2OC2CC2OC12 (stereo unspecified) | 97 % of control
7) OC(C/C(=N\Nc1ccccc1)c1ccc(Br)cc1)(C(F)(F)F)C(F)(F)F | 95 % of control
8) OC(c1ccc(Cl)cc1)c1ccc(Cl)cc1 | 90 % of control
9) CCCC(O)C(CC)[N+](=O)[O-] (stereo unspecified) | 98 % of control
10) CCOC(=O)c1cc(=O)c2ccccc2[nH]1 | 90 % of control
11) C/C(=C\C(=O)C(C)(C)C)C(C)(C)C | 96 % of control

* * *

Test system: CD2F1 mice, L1210 leukemia ip, survival T/C
method_description: NCI In Vivo Anticancer Drug Screen. Data for tumor model L1210 Leukemia (intraperitoneal) in CD2F1 (CDF1) mice
settings: endpoint: mean survival time; dose: 100.0 mg/kg/injection; schedule: Q01DX001 (ip); vehicle: saline with Tween-80; higher = longer survival
Inconclusive results and toxic doses are left out. Residues, ends and D or L forms follow the SMILES beside them. *: point of attachment. Cbz = O=C(OCc1ccccc1)*; Bn = c1ccc(C*)cc1
readout_kind: T/C

1. CC(=O)OCC(OC(C)=O)C(OC(C)=O)C(OC(C)=O)C(COC(=O)c1ccccc1)OC(=O)c1ccccc1 (centres undefined) | 96 % of control
2. C1C2OC2CC2OC12 (centres undefined) | 97 % of control
3. COC(=O)C1CC2C(=O)CCCCCCC2C1O (centres undefined) | 93 % of control
4. CN(C)C/C(=N\OC(=O)c1ccccc1)c1ccc(Cl)cc1 | 96 % of control
5. CC1=CC(=O)C(C(=O)CC(O)(C(F)(F)F)C(F)(F)F)C(=O)O1 (centres undefined) | 98 % of control
6. CC(=O)C(C(C)=O)C(c1cccnc1)C(C(C)=O)C(C)=O | 104 % of control
7. O=S1C2C3CC(C4C=CCC43)C2N1c1ccccc1 (centres undefined) | 92 % of control
8. COC(=O)C(Cc1ccccc1)NC(=O)C(CSCc1ccccc1)NC(=O)OCc1ccccc1 (centres undefined) (Cbz-Cys(Bn)-Phe-OMe; configuration not given here) | 93 % of control
9. CCCCCCCCCCCCCCN1CCCN(CCCCCCCCCCCCCC)CC1 | 94 % of control
